Biological target: human recombinant ETA receptors (Homo sapiens, UniProt P25101)
Sequence (P25101 21-427): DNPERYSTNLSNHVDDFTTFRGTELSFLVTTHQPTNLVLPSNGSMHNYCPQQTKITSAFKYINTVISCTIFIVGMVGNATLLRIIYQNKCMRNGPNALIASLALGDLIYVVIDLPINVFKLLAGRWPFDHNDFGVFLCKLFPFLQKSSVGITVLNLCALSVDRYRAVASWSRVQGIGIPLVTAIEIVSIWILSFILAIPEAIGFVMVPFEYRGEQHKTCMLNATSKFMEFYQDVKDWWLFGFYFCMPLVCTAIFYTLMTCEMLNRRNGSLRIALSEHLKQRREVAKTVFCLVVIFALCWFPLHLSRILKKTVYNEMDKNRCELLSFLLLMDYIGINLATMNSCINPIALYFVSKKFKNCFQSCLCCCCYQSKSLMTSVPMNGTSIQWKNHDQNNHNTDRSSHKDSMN
Assay: Inhibition of [125I]ET-1 binding to membranes of CHO cells expressing human recombinant ETA receptors; note: 2.5% DMSO

{"COMPOUND": "Cc1ccc(-c2c(NS(=O)(=O)c3ccc(C(C)C)cn3)nc(-c3ccncc3)nc2OCC#CCO)cc1 [Example 11d]", "IC50": "49 nM"}
{"COMPOUND": "COCC#CCOc1nc(N2CCOCC2)nc(NS(=O)(=O)c2ccc(C(C)C)cn2)c1Oc1ccccc1OC [Example 94]", "IC50": "13 nM"}
{"COMPOUND": "COc1ccccc1Oc1c(NS(=O)(=O)c2ccc(C(C)(C)C)cc2)nc(-c2ccncc2)nc1OCC#CCOc1ncccn1 [Example 19]", "IC50": "112 nM"}
{"COMPOUND": "COc1ccccc1Oc1c(NS(=O)(=O)c2ccc(C(C)C)cn2)nc(C)nc1OCC#CCOC(=O)Nc1ccccc1 [Example 70]", "IC50": "94 nM"}
{"COMPOUND": "COc1cc(OC)nc(OCC#CCOc2nc(-c3ccncc3)nc(NS(=O)(=O)c3ccc(C(C)C)cn3)c2Oc2ccccc2OC)n1 [Example 18]", "IC50": "79 nM"}
{"COMPOUND": "COc1cc(OC)nc(OCC#CCOc2nc(-c3ccncc3)nc(NS(=O)(=O)c3ccc(C(C)(C)C)cc3)c2Oc2ccccc2OC)n1 [Example 21]", "IC50": "230 nM"}
